src = paper PMC5298035

- Assay type: in vivo, human
- condition: both, human, plasma, po, 3 mg
assay-endpoint: AUC(0-inf) (ng·h/mL)
Numbers only, in ng·h/mL.

Any idea what AUC(0-inf) was measured for Cc1ncc2n1-c1ccc(Cl)cc1C(c1ccccc1F)=NC2 ?
46

----------
- Assay type: in vivo, human
- condition: both, human, plasma, oral, 200 mg
assay-endpoint: Cmax (ng/mL)
Give bare numbers, in ng/mL.

Name the recorded Cmax for C[C@@H](c1nc(-c2ccc(C#N)cc2)cs1)[C@](O)(Cn1cncn1)c1cc(F)ccc1F .
5200

----------
- Type: in vivo, human
- condition: both, human, plasma, po, 200 mg
assay-endpoint: AUC(0-inf)

Could you share which AUC(0-inf) value was measured for C[C@@H](c1nc(-c2ccc(C#N)cc2)cs1)[C@](O)(Cn1cncn1)c1cc(F)ccc1F ?
84800 ng·h/mL

----------
- Assay type: in vivo, human
- condition: both, human, plasma, po, 200 mg
assay-endpoint: Tmax
Please make sure the unit comes right after the number.

Look up Tmax for this compound: C[C@@H](c1nc(-c2ccc(C#N)cc2)cs1)[C@](O)(Cn1cncn1)c1cc(F)ccc1F [Isavuconazole, isavuconazole]
2 h

----------
- Format: in vivo, human
- condition: both, human, plasma, po, 200 mg
assay-endpoint: AUC(0-t) (ng·h/mL)
Answers are plain numbers, in ng·h/mL.

Using the record for C[C@@H](c1nc(-c2ccc(C#N)cc2)cs1)[C@](O)(Cn1cncn1)c1cc(F)ccc1F [Isavuconazole, isavuconazole] , report its AUC(0-t).
64900

----------
- Assay type: in vivo, human
- condition: both, human, plasma, po, 3 mg
assay-endpoint: Tmax

Item Cc1ncc2n1-c1ccc(Cl)cc1C(c1ccccc1F)=NC2 [Midazolam, midazolam] has what recorded Tmax?
1 h

----------
- measurement-protocol: Phase 1 ethinyl estradiol/norethindrone interaction study: plasma PK
- Type: in vivo, human
- condition: female, human, plasma, po
assay-endpoint: Tmax
Value and unit, in that order.

Recorded Tmax of C#C[C@]1(O)CC[C@H]2[C@@H]3CCC4=CC(=O)CC[C@@H]4[C@H]3CC[C@@]21C , please.
1 h

----------
- measurement-protocol: Phase 1 ethinyl estradiol/norethindrone interaction study: plasma PK
- Assay type: in vivo, human
- condition: female, human, plasma, oral, 200 mg
assay-endpoint: Cmax
Kindly write the number and append the unit.

Dear colleague, I am looking for the recorded Cmax of the following compound: C[C@@H](c1nc(-c2ccc(C#N)cc2)cs1)[C@](O)(Cn1cncn1)c1cc(F)ccc1F
5800 ng/mL

----------
- Format: in vivo, human
- condition: both, human, plasma, po, 200 mg
assay-endpoint: Cmax (ng/mL)
Give bare numbers, in ng/mL.

Recorded Cmax of C[C@@H](c1nc(-c2ccc(C#N)cc2)cs1)[C@](O)(Cn1cncn1)c1cc(F)ccc1F [Isavuconazole, isavuconazole] , please.
2200

----------
- measurement-protocol: Phase 1 rifampin interaction study: plasma PK of isavuconazole
- Type: in vivo, human
- condition: male, human, plasma, po
assay-endpoint: Tmax (h)
Answers are plain numbers, in h.

What Tmax value was documented for this compound, C[C@@H](c1nc(-c2ccc(C#N)cc2)cs1)[C@](O)(Cn1cncn1)c1cc(F)ccc1F ?
2

----------
- Assay type: in vivo, human
- condition: both, human, plasma, po, 3 mg
assay-endpoint: half-life (h)
Give bare numbers, in h.

// lookup half-life for Cc1ncc2n1-c1ccc(Cl)cc1C(c1ccccc1F)=NC2 [Midazolam, midazolam]
5.4
